Biological target: AHR (Mus musculus, UniProt P30561)
Sequence (P30561 whole entry P471L/N533S/M589L, form open): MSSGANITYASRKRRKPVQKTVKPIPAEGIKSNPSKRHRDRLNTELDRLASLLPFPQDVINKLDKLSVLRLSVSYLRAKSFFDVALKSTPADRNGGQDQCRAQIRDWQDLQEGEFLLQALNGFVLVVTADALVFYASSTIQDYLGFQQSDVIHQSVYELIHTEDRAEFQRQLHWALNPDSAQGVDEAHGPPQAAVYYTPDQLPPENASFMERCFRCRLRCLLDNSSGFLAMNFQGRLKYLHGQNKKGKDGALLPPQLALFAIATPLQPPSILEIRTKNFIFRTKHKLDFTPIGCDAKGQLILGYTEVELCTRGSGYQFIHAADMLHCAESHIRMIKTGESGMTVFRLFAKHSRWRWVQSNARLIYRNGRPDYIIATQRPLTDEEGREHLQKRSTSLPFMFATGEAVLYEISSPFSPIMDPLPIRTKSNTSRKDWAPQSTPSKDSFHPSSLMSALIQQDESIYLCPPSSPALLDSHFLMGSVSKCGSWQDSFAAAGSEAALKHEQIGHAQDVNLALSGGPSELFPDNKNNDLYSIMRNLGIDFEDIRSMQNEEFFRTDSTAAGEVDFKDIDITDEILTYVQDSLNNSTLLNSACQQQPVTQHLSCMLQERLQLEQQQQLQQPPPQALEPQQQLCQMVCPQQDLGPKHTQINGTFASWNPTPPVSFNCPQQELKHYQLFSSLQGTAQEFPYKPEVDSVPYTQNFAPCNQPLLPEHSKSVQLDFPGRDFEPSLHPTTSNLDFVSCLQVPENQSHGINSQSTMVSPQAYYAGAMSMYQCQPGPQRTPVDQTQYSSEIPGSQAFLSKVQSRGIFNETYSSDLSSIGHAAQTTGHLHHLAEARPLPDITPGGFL
Test: In vitro assay 3: antagonism in mouse cell line (AHR transactivation, firefly luciferase reporter, kynurenic acid prestimulated)
Assay type: cell-based
Conditions: mouse Hepa 1c1c7 cells, 200 μM kynurenic acid, 20 hours, read-out: AHR Antagonism Mouse IC50
pIC50: −log10 of the molar value.
readout: pIC50

These recorded examples may help you get a feel for the data.
COc1ccc(-c2nc3c4cccc(C(F)(F)F)c4nc(N[C@@H]4CNCCNC4=O)n3n2)cc1 [Example 422]: 9.03
C[S+]([O-])c1ccccc1-c1nc2c3ccccc3nc(N[C@@H]3CCCCNC3=O)n2n1 (mixture of isomers) [Example 648]: 8.44

A: O=C1NCCCC[C@@H]1Nc1nc2ccccc2c2nc(-c3ccccc3Br)nn12 [Example 453]
B: CC[C@@H](Nc1nc2ccccc2c2nc(-c3ccsc3C)nn12)C(N)=O [Example 351]
Task item: Could you check which of A and B has a smaller value for pIC50? Lab note: record the label of whichever item you select.
Reply: A
(A: 7.76, B: 9.90)

====

Biological target: AHR (Homo sapiens, UniProt P35869)
Construct: U87 MG glioblastoma cells (ATCC #HTB-14) endogenously expressing AHR; endogenous in cells; host or cells: U87 MG glioblastoma cells (ATCC #HTB-14)
Sequence (P35869 11-848): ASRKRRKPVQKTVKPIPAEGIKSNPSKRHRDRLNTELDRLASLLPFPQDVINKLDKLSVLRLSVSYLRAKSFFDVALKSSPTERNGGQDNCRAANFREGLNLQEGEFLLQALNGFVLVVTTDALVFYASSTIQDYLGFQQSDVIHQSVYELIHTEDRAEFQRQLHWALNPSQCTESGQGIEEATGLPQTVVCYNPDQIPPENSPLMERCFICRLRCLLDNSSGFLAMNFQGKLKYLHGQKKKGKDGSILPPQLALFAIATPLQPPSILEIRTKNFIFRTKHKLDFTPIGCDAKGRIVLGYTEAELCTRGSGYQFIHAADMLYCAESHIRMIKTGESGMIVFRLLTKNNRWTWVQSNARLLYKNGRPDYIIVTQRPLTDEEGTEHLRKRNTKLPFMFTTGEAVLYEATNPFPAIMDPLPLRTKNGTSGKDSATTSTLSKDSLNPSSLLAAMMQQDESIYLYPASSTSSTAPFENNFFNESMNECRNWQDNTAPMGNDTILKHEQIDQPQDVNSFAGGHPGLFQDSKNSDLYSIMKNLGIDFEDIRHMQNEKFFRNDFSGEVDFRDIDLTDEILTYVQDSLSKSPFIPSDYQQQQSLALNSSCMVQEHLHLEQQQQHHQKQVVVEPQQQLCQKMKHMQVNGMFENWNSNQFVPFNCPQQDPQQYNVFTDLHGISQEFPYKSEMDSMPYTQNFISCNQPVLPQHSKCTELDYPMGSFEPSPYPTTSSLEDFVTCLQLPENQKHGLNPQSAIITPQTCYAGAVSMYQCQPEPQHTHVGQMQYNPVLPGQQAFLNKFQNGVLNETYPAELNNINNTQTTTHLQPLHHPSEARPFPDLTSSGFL
Test: In vitro assay 1: antagonism in human cell line (AHR transactivation, firefly luciferase reporter, kynurenic acid prestimulated)
Type: cell-based
Settings: AHR Antagonism Human IC50 [M]
readout: IC50 (M)

COc1ccc(-c2nc3c4cccc(C(F)(F)F)c4nc(N[C@@H]4CCCCNC4=O)n3n2)cc1: 1.15e-09
COc1ccc(-c2nc3c4ccc(F)cc4nc(N[C@@H]4CNCCNC4=O)n3n2)cc1: 1.45e-08
COc1ccc(-c2nc3c4cccc(Br)c4nc(N[C@@H]4COCCNC4=O)n3n2)cc1: 9.83e-10
O=C1NCCNC[C@H]1Nc1nc2ccccc2c2nc(-c3cc(F)ccc3OC(F)(F)F)nn12: 9.56e-06

1: O=C1NCCCC[C@H]1Nc1nc2ccccc2c2nc(-c3c[nH]nc3C(F)(F)F)nn12
2: N#Cc1ccc(-c2nc3c4cccc(Br)c4nc(N[C@@H]4CCCNC4=O)n3n2)cc1
Task item: Could you check which of 1 and 2 has a smaller value for IC50? Lab note: record the label of whichever item you select.
Reply: 2

P: O=C1NCCCC[C@H]1Nc1nc2ccccc2c2nc(-c3cccnc3F)nn12
Q: O=C1NCCCC[C@H]1Nc1nc2c(C(F)(F)F)cccc2c2nc(-c3nc(C4CC4)cs3)nn12
Task item: Pick the one with the larger IC50: P vs Q Lab note: record the label of whichever item you select.
Reply: P

A: COc1ccc(-c2nc3c4c(OC)cccc4nc(N[C@@H]4CCCCNC4=O)n3n2)cc1
B: Cc1cscc1-c1nc2c3ccccc3nc(N[C@@H]3CCCNC3=O)n2n1
Task item: Pick the one with the larger IC50: A vs B Lab note: record the label of whichever item you select.
Reply: B
(B: 6.05e-08 M, A: 3.21e-08 M)

I: COc1cccc(-c2nc3c4ccccc4nc(N[C@H](CC(C)C)C(N)=O)n3n2)c1
II: COc1cccc(-c2nc3c4ccc(F)cc4nc(N[C@@H]4CCCCNC4=O)n3n2)c1
Task item: Could you check which of I and II has a smaller value for IC50? Lab note: record the label of whichever item you select.
Reply: I

1: Cc1n[nH]c(C)c1-c1nc2c3ccccc3nc(N[C@@H]3CCCCNC3=O)n2n1
2: Cn1cc(-c2nc3c4c(C#N)cccc4nc(N[C@@H]4CCCCNC4=O)n3n2)cn1
3: COc1ccc(-c2nc3c4c(C#N)cccc4nc(N[C@@H]4CCCCNC4=O)n3n2)cc1
4: O=C1NCCC1Nc1nc2ccccc2c2nc(-c3cccc(F)c3)nn12 (centres unmarked)
Task item: Ascending sort, IC50. Give the order by naming the labels one after another as requested.
Reply: 3, 4, 1, 2
(3: 3.32e-09 M, 4: 2.62e-08 M, 1: 8.6e-08 M, 2: 3.08e-07 M)

P: Cc1ccc2nc(N[C@@H]3CCCCNC3=O)n3nc(-c4cn(C)nc4C(F)(F)F)nc3c2c1
Q: O=C1NCCC[C@H]1Nc1nc2ccccc2c2nc(-c3ccccc3OC(F)(F)F)nn12
Task item: Could you check which of P and Q has a smaller value for IC50? Lab note: record the label of whichever item you select.
Reply: Q

P: O=C1NCCCC[C@H]1Nc1nc2ccccc2c2nc(-c3ccc(F)cc3F)nn12
Q: CS(=O)(=O)c1ccc(-c2nc3c4ccccc4nc(N[C@@H]4CCCNC4=O)n3n2)cc1
Task item: Pick the one with the larger IC50: P vs Q Lab note: record the label of whichever item you select.
Reply: Q

P: CCn1cc(-c2nc3c4cccc(SC)c4nc(N[C@@H]4CCCCNC4=O)n3n2)c(C)n1
Q: O=C1NCCC[C@H]1Nc1nc2ccccc2c2nc(-c3ccc(Cl)cc3OC(F)(F)F)nn12
R: COc1ccc(-c2nc3c4cccc(Br)c4nc(N[C@@H]4CNCCNC4=O)n3n2)cc1
Task item: Order the records so the highest IC50 appears first and the lowest last. Give the order by naming the labels one after another as requested.
Reply: Q, P, R

====

Target: AHR (Mus musculus, UniProt P30561)
Experiment: In vitro assay 3: antagonism in mouse cell line (AHR transactivation, firefly luciferase reporter, kynurenic acid prestimulated)
Assay type: cell-based
Conditions: mouse Hepa 1c1c7 cells, 200 μM kynurenic acid, 20 hours, read-out: AHR Antagonism Mouse IC50
pIC50: −log10 of the molar value.
readout: pIC50

CCCCNC(=O)[C@H](C)Nc1nc2c(Br)cccc2c2nc(-c3ccc(Cl)cc3OC(F)F)nn12 [Example 686]: 7.73
CCCC[C@H](Nc1nc2ccccc2c2nc(-c3ccccc3OC(F)(F)F)nn12)C(N)=O [Example 467]: 7.48
CCCNC(=O)[C@@H](C)Nc1nc2ccccc2c2nc(-c3ccc(S(C)(=O)=O)cc3)nn12 [Example 439]: 7.57
COc1ccc(-c2nc3c4c(C5CCOCC5)cccc4nc(N[C@@H]4CCCCNC4=O)n3n2)cc1 [Example 397]: 7.42
O=C1NCCNC[C@H]1Nc1nc2c(Br)cccc2c2nc(-c3cccc(F)c3)nn12 [Example 268]: 8.51
COc1cccc(-c2nc3c4c(C)cccc4nc(N[C@H]4CCCCNC4=O)n3n2)c1 [Example 181]: 7.59

P: Cc1ccccc1-c1nc2c3ccccc3nc(NC3CCCNC3=O)n2n1 (single isomer, unassigned) [Example 49]
Q: CC[C@@H](Nc1nc2ccccc2c2nc(-c3ccccc3S(C)(=O)=O)nn12)C(N)=O [Example 451]
Task item: Pick the one with the larger pIC50: P vs Q Lab note: record the label of whichever item you select.
Reply: P

====

Target: AHR (Homo sapiens, UniProt P35869)
Construct: U87 MG glioblastoma cells (ATCC #HTB-14) endogenously expressing AHR; endogenous in cells; host or cells: U87 MG glioblastoma cells (ATCC #HTB-14)
Test: In vitro assay 1: antagonism in human cell line (AHR transactivation, firefly luciferase reporter, kynurenic acid prestimulated)
Assay type: cell-based
Settings: AHR Antagonism Human IC50 [M]
readout: IC50 (M)

These recorded examples may help you get a feel for the data.
CCCCNC(=O)[C@@H](C)Nc1nc2c(C(F)(F)F)cccc2c2nc(-c3cnn(C)c3)nn12: 1.47e-08
Cc1ccccc1-c1nc2c3ccccc3nc(NC3CNCCNC3=O)n2n1 (single isomer, unassigned) [Example 46]: 2.93e-08
COc1cccc(-c2nc3c4ccccc4nc(NC4CNCCNC4=O)n3n2)c1 (single isomer, unassigned) [Example 116]: 2.75e-06
CCCNC(=O)[C@@H](C)Nc1nc2ccccc2c2nc(-c3cccc(OC(F)(F)F)c3)nn12: 2.06e-08
O=C1NCCCC[C@H]1Nc1nc2c(C(F)(F)F)cccc2c2nc(-c3cnn(C4CC4)c3)nn12: 6.18e-10
Cc1cc(-c2nc3c4cccc(C(F)(F)F)c4nc(N[C@@H]4CCCCNC4=O)n3n2)n(C)n1: 1.22e-09
Cn1cc(-c2nc3c4ccccc4nc(N[C@@H]4CCCCNC4=O)n3n2)nn1: 1.3e-07
O=C1NCCCC[C@H]1Nc1nc2ccccc2c2nc(-c3ccccc3)nn12: 3.4e-10
Cc1nn(C2CC2)c(C)c1-c1nc2c3cccc(C(F)(F)F)c3nc(N[C@@H]3CCCCNC3=O)n2n1: 4.41e-09
Cn1ccc(-c2nc3c4ccccc4nc(N[C@@H]4CCCCNC4=O)n3n2)n1: 2.87e-08

P: O=C1NCCCC[C@H]1Nc1nc2ccccc2c2nc(-c3cc(F)ccc3OC(F)(F)F)nn12
Q: O=C1NCCCC[C@@H]1Nc1nc2ccccc2c2nc(-c3cccc(OC(F)(F)F)c3)nn12
R: CN1CC[C@@H](Nc2nc3ccccc3c3nc(-c4ccsc4)nn23)C1=O
S: O=C1NCCCC[C@H]1Nc1nc2ccccc2c2nc(-c3ccc(OC4CC4)cc3)nn12
T: COc1ccc(-c2nc3c4ccccc4nc(N[C@H](C)C(=O)NCCN4CCOCC4)n3n2)cc1
Task item: Order the records so the highest IC50 appears first and the lowest last. Give the order by naming the labels one after another as requested.
Reply: Q, R, P, T, S
(Q: 2.06e-07 M, R: 1.24e-07 M, P: 2.22e-08 M, T: 4.3e-09 M, S: 1.32e-09 M)
